B1: PhoQ; a variant is named by its letters at X, in order, P23837 (parent)
chain: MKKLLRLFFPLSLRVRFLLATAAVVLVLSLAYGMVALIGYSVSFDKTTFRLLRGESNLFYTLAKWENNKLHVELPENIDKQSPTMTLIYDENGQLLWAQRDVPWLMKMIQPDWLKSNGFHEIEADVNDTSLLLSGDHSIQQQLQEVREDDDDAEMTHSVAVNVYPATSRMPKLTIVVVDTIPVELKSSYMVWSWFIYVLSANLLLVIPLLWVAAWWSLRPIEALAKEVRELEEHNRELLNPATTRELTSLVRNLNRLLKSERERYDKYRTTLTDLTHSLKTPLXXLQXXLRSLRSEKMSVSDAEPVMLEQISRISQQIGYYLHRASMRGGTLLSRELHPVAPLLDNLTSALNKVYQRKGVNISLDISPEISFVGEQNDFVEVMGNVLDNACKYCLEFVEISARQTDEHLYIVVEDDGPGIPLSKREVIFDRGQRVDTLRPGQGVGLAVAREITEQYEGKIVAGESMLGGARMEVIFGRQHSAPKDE

variants of: B1; assay: enrichment ratio after two sorts for PhoP signalling (ratio (wild type AVST 3.29)); higher = more functional; details: with PhoP (E. coli)
Over roughly 140,000 sequences, “enrichment ratio after two sorts for PhoP signalling” has its median near 0; the highest 2% begin near 11. Only a selection was taken, and the highest values are over-represented in it overall.

{"columns": ["variant-code", "enrichment ratio"],
 "data": [
  ["IQKP", "≤ 0.25"],
  ["GNML", 12.2],
  ["NKMF", "≤ 0.25"],
  ["NQML", "≤ 0.25"],
  ["TATG", 18],
  ["NLAY", "≤ 0.25"],
  ["AIWM", "≤ 0.25"],
  ["PFRI", "≤ 0.25"],
  ["KMRS", "≤ 0.25"],
  ["AICK", 24.4],
  ["LLTH", "≤ 0.25"],
  ["WTRS", "≤ 0.25"],
  ["ITGG", "≤ 0.25"],
  ["ISPF", "≤ 0.25"],
  ["DYPW", "≤ 0.25"],
  ["AFGA", "≤ 0.25"],
  ["KKML", "≤ 0.25"],
  ["EVSQ", "≤ 0.25"],
  ["KASC", "≤ 0.25"],
  ["FESF", "≤ 0.25"],
  ["AILH", 3.54],
  ["AICS", 18.9],
  ["YAML", 8.51],
  ["GQML", 7.95],
  ["TMQP", "≤ 0.25"],
  ["YTLH", 0.617],
  ["WICS", "≤ 0.25"],
  ["MHLQ", "≤ 0.25"],
  ["TPMA", "≤ 0.25"],
  ["MSSN", "≤ 0.25"],
  ["VNKQ", "≤ 0.25"],
  ["GEKS", "≤ 0.25"],
  ["AHYP", "≤ 0.25"],
  ["MIQV", "≤ 0.25"],
  ["EPSH", "≤ 0.25"],
  ["FREL", "≤ 0.25"],
  ["AICA", 3.23],
  ["LSEF", "≤ 0.25"],
  ["TNML", 1.41],
  ["IDIW", "≤ 0.25"],
  ["DHTW", "≤ 0.25"],
  ["KATG", "≤ 0.25"],
  ["NASC", "≤ 0.25"],
  ["AIGM", 8.76],
  ["HRRK", "≤ 0.25"],
  ["TMQI", 12.3]
]}
